Data provenance: patent US8796328B2

# target.system: human TRPV1 receptor (hTRPV1) (Homo sapiens (Human), UniProt Q8NER1)
# Sequence (Q8NER1 whole entry): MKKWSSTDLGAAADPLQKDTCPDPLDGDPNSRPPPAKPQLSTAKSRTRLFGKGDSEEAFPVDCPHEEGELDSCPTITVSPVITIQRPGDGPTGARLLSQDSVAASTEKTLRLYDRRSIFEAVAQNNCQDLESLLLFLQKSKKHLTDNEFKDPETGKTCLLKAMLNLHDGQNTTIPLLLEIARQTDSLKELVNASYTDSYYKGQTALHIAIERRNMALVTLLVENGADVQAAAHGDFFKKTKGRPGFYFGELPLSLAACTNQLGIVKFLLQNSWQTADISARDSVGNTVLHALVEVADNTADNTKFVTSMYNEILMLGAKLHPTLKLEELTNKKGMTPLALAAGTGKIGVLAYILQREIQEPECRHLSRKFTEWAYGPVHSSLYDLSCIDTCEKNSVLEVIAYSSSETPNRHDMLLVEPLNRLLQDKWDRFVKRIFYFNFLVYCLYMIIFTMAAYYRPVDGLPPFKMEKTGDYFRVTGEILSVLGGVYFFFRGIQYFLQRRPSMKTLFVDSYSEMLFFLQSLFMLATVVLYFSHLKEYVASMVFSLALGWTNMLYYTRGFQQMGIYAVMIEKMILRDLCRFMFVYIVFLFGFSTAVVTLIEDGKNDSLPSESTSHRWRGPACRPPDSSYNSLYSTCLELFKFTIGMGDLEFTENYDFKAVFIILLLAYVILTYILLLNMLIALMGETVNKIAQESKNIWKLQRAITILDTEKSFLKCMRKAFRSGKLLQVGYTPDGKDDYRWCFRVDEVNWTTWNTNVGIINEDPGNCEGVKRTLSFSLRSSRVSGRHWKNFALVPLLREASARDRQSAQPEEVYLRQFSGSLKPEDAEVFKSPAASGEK
# procedure.summary: Acid activation assay (pH 5.0, FLIPR intracellular Ca2+)
# Assay type: cell-based
# condition.info: Table 2; 37.5 μM compound; percentage of maximal pH 5.0-induced response
Classify as follows. Reported human TRPV1 H+ (max % remain) greater than or equal to 2%: true (1). Reported human TRPV1 H+ (max % remain) below: false (0).

molecule	category
CS(=O)(=O)Nc1ccc(CNC(=O)N[C@@H]2CC(CF)(CF)Oc3cc(C(F)(F)F)ccc32)cc1F [Example 10]	true (1)
Cc1nc(Nc2cccc3c2C[C@H](O)CC3)oc1-c1ccc(C(F)(F)F)cc1 [D, reference compound]	true (1)
CC(C)(C)c1ccc(Nc2ncnc3cc(-c4ncccc4C(F)(F)F)ccc23)cc1 [B, reference compound]	false (0)
CC(=O)Nc1nc2c(Oc3cc(-c4ccc(C(F)(F)F)cc4)ncn3)cccc2s1 [A, reference compound]	true (1)
CC(C)(C)c1ccc2c(c1)CC[C@H]2NC(=O)Nc1cccc2[nH]cnc12 [C, reference compound]	false (0)

----------
# remaining activity at 37.5 µM annotations
# target.system: human TRPV1 receptor (hTRPV1) (Homo sapiens (Human), UniProt Q8NER1)
# procedure.summary: Acid activation assay (pH 5.0, FLIPR intracellular Ca2+)
# Format: cell-based
# condition.info: 37.5 μM compound; percentage of the maximal pH 5.0-induced response remaining; read-out: hTRPV1 H+ (max % remain)

compound	remaining activity at 37.5 µM / %
CS(=O)(=O)Nc1ccc(CNC(=O)NC2CC3(CCCC3)Oc3ccccc32)cc1F (stereo not shown)	42
CC1(C)C[C@@H](NC(=O)NCc2ccc(NS(C)(=O)=O)c(F)c2)c2ccc(F)c(F)c2O1	27
CS(=O)(=O)Nc1ccc(CNC(=O)N[C@@H]2CCc3cc(Cl)ccc32)cc1F	86
CS(=O)(=O)Nc1ccc(CNC(=O)N[C@@H]2CC(CF)(CF)Oc3cc(OC(F)(F)F)ccc32)cc1F	85

----------
# target.system: human TRPV1 receptor (hTRPV1) (Homo sapiens (Human))
# procedure.summary: Capsaicin activation assay (FLIPR intracellular Ca2+)
# Type: cell-based
# condition.info: Table 2; capsaicin-induced intracellular Ca2+ increase; read-out: human TRPV1 capsaicin IC50
test.readout: IC50 (nM)

compound	value.measured
CC(C)(C)c1ccc2c(c1)CC[C@H]2NC(=O)Nc1cccc2[nH]cnc12 [C, reference compound]	35
CS(=O)(=O)Nc1ccc(CNC(=O)N[C@@H]2CC(CF)(CF)Oc3cc(C(F)(F)F)ccc32)cc1F [Example 10]	54

----------
# target.system: human TRPV1 receptor (hTRPV1) (Homo sapiens (Human))
# procedure.summary: Capsaicin activation assay (FLIPR intracellular Ca2+)
# Type: cell-based
# condition.info: inhibition of capsaicin-induced intracellular Ca2+ increase; compounds added 3 minutes prior to capsaicin; read-out: hTRPV1 cap. IC50
pIC50: −log10 of the molar value.
Use 6 as the dividing line for pIC50, with the line itself on the true side and lower values as false.

query.smiles	category
CS(=O)(=O)Nc1ccc(CNC(=O)N[C@@H]2CCOc3cc(OC(F)(F)F)ccc32)cc1F	false
CS(=O)(=O)Nc1ccc(CNC(=O)N[C@@H]2CC(CF)(CF)Oc3c(F)cc(F)cc32)cc1F	false
C[C@@]1(C(F)F)C[C@@H](NC(=O)NCc2ccc(NS(C)(=O)=O)c(F)c2)c2ccccc2O1	false
C[C@@]1(CF)C[C@@H](NC(=O)NCc2ccc(NS(C)(=O)=O)c(F)c2)c2ccc(Cl)cc2O1	true
CS(=O)(=O)Nc1ccc(CNC(=O)N[C@@H]2CCc3cc(F)ccc32)cc1F	false
CC1(C)C[C@@H](NC(=O)NCc2ccc(NS(C)(=O)=O)c(F)c2)c2ccc(F)c(Cl)c2O1	true
CS(=O)(=O)Nc1ccc(CNC(=O)N[C@@H]2CCOc3c2cccc3C(F)(F)F)cc1F	false
CCC1(CC)C[C@@H](NC(=O)NCc2ccc(NS(C)(=O)=O)c(F)c2)c2ccc(OC(F)(F)F)cc2O1	true
CC1(C)C[C@H](NC(=O)NCc2ccc(NS(C)(=O)=O)c(F)c2)c2cc(F)ccc2O1	false
CS(=O)(=O)Nc1ccc(CNC(=O)N[C@@H]2CC(CF)(CF)Oc3ccccc32)cc1F	false
C[C@]1(C(F)F)C[C@@H](NC(=O)NCc2ccc(NS(C)(=O)=O)c(F)c2)c2ccccc2O1	false
CCC1(CC)C[C@@H](NC(=O)NCc2ccc(NS(C)(=O)=O)c(F)c2)c2ccc(Cl)cc2O1	true
CS(=O)(=O)Nc1ccc(CNC(=O)N[C@@H]2CC3(CCC3)Oc3ccc(F)cc32)cc1F	false
CS(=O)(=O)Nc1ccc(CNC(=O)N[C@H]2CCOc3cc(OC(F)(F)F)ccc32)cc1F	false
